# Tested on: A498 renal
# assay.text: NCI-60 one-dose screen, 48 h
# condition.description: 10 µM unless noted
Compounds without any hit were thinned out: in the full panel of roughly 83,000, 20% have a hit. Activity calls are given as the source filed them. Rule for the calls: active = growth percent below 10; inactive = the rest.
The categories you may choose from are true for active, false for inactive

INSERT INTO results (compound, category_label) VALUES
  ('CNC(=O)c1cc(Oc2ccc3c(c2)sc2nc(-c4cc(OC)c(OC)c(OC)c4)cn23)ccn1', 'false'),
  ('COc1ccc2cc(C(=O)c3coc4ccc(O)cc34)ccc2c1', 'false'),
  ('O=C(Nn1c2c(sc1=NCc1ccccc1)C(=O)c1ccccc1C2=O)c1cc2ccc1CCc1ccc(cc1)CC2', 'false');

## Task Record request — test call for COc1ccc(/C=N/C2=C(C#N)C(c3cccc(Cl)c3)c3c(ccc4ccccc34)O2)cc1 (stereo unspecified)
## Result true

## Task Record request — test call for `CCOC(=O)C1=C(NC)OCC1=O`
## Result false

## Task Record request — test call for `Cc1ccc(Cl)cc1Nc1nc(C(F)(F)F)ccc1C(=O)N/N=C/c1cccnc1`
## Result false

## Task Record request — test call for `CCN(CC)CCSc1nc(-c2ccccc2)c(C#N)c(=O)[nH]1`
## Result false

## Task Record request — test call for `C#CCn1cnc2c(Nc3cccc(NC(=O)C=C)c3)ncnc21`
## Result false

## Task Record request — test call for `COc1ccc(C(=O)Nc2ncc(Cc3cccc(Cl)c3)s2)cc1OC`
## Result true

## Task Record request — test call for `Fc1ccc2[nH]cc(-c3nonc3-c3c[nH]c4ccc(Br)cc34)c2c1`
## Result false

## Task Record request — test call for `O=c1oc2ccc([N+](=O)[O-])cc2cc1Br`
## Result false

## Task Record request — test call for `CCC(=C(c1ccc(OCCN2CCCC2)cc1)c1ccc(OCCN2CCCC2)cc1)c1ccc(Cl)cc1`
## Result false

## Task Record request — test call for `C/C(=N/O)c1ccc(F)cc1`
## Result false

## Task Record request — test call for `COc1ccc(-c2cn(-c3cc(OC)c(OC)c(OC)c3)c(=O)n2C(C)=O)cc1`
## Result false

## Task Record request — test call for `CCN(CC)CCOc1ccc(C(=C(C)c2ccc(Cl)cc2)c2ccc(OCCN(CC)CC)cc2)cc1`
## Result true

## Task Record request — test call for `CCCCCCCCn1ccc2cc(NC(=O)Cn3cc(CN4CCCCC4)nn3)ccc21`
## Result false

## Task Record request — test call for `N#Cc1c(NC(=O)c2ccccc2)sc2c1CCC(=O)C2`
## Result false

## Task Record request — test call for `Cc1ccc(-c2nc(N3CCNCC3)c3oc(-c4ccccc4)nc3n2)cc1`
## Result false

## Task Record request — test call for CN(Cc1ccc(C(F)(F)F)cc1)CC(O)C(=O)Nc1ccc(Cl)cc1 (stereo unspecified)
## Result true

## Task Record request — test call for `COC(=O)c1c2c(c[n+]([O-])c1C)C(=O)C(NCc1ccccc1)=CC2=O`
## Result true

## Task Record request — test call for `COc1ccc(/C(C)=C(/c2ccc(OCCCN(C)C)cc2)c2ccc(OC(=O)Cc3ccccc3)cc2)cc1`
## Result false

* * *

# Test system: LOX IMVI melanoma
# assay.text: NCI-60 one-dose screen, 48 h (100 = growth as untreated, 0 = no growth, -100 = all killed)
# condition.description: 10 µM unless noted
Compounds without any hit were thinned out: in the full panel of roughly 83,000, 20% have a hit.
readout.label: growth (%)
Please state the figure in %; there is no need to write the unit.

INSERT INTO results (molecule_smiles, reading_unit, meas_value) VALUES
  ('CN1CCN(Cc2ccc3c(NNC(=O)c4ccccc4)nc4cc(F)ccc4n23)CC1', '%', 7.25),
  ('O=C1c2cccc(NCCN=Cc3cc(O)ccc3O)c2C(=O)c2c(NCCN=Cc3cc(O)ccc3O)cccc21', '%', -44.9),
  ('COc1cc(-c2nc(SCC(C)C)nc(Nc3cccc4ccccc34)c2C#N)cc(OC)c1OC', '%', 103),
  ('OCCNCCCOc1ccc2ncnc(Nc3ccc(Oc4cccc(C(F)(F)F)c4)c(Cl)c3)c2c1', '%', -98.9);

Reported growth for `O=C1/C(=C/c2ccc(F)cc2)COc2ccc(O)c(O)c21` was -85.2

* * *

# Tested on: K-562 leukemia
# assay.text: NCI-60 one-dose screen, 48 h
# condition.description: 10 µM unless noted
About 83,000 compounds went through this panel and 20% of them were active in at least one assay; those are over-represented in the sample as a whole. The source made the active and inactive calls. The calls were made as follows: active = growth percent below 10; inactive = the rest.
The categories you may choose from are TRUE for active, FALSE for inactive

Observe how each entry below is paired with its result.
INSERT INTO assay_data (molecule_smiles, category_label) VALUES
  ('COc1ccc(Cc2cc(-c3ccccc3)nn(Cc3ccccc3)c2=O)cc1OC', 'FALSE'),
  ('CCCc1cc(NC)nc(S(=O)(=O)CC)n1', 'FALSE'),
  ('O=S(=O)(NCCNc1nccc(-c2c(-c3cccc(F)c3)nc3occn23)n1)c1ccc(Br)cc1', 'FALSE'),
  ('COc1cc(-c2cc(-c3ccc(N(C)C)cc3)nc(N3CCC(O)CC3)c2C#N)cc(OC)c1OC', 'TRUE'),
  ('CCCCC(=O)Nc1ncc(Cc2ccc(Cl)cc2)s1', 'FALSE');

Please turn your attention to the following entry.
## Task Record request — test call for `Cc1ccc(Cc2cnc(NC(=O)c3cc(Br)cs3)s2)cc1`
## Result FALSE

* * *

# System: SF-295 CNS
# assay.text: NCI-60 one-dose screen, 48 h (100 = growth as untreated, 0 = no growth, -100 = all killed)
# condition.description: 10 µM unless noted
The panel holds about 83,000 compounds, 20% with a hit somewhere; the sample as a whole holds those more often.
The following compounds are listed with their measured growth values.
Please state the figure in %; there is no need to write the unit.

Reported growth for `COc1cc(CNS(=O)(=O)c2ccc(C)cc2)ccc1OCc1cn(-c2ccc(F)cc2)nn1` was 90.1

Reported growth for `CCCCCCNC(=O)Oc1ccc(/C(=C(/C)Cc2ccc(OC)cc2)c2ccc(OCCCN(C)C)cc2)cc1` was 10.5

Reported growth for `O=C(Cn1c2c(c3ccccc31)CCCC2)Nc1ccc(-c2nc3ccccc3s2)cc1` was 103

* * *

# System: A549/ATCC NSCLC
# assay.text: NCI-60 one-dose screen, 48 h
# condition.description: 10 µM unless noted
About 83,000 compounds went through this panel and 20% of them were active in at least one assay; those are over-represented in the sample as a whole. Active and inactive are the calls of the source. The calls were made as follows: active = growth percent below 10; inactive = the rest.
The categories you may choose from are yes (1) = active, no (0) = inactive

INSERT INTO assay_data (compound, category_label) VALUES
  ('CC1=NN(c2nc(SCC(=O)Nc3nc4ccc(C)cc4s3)nc(-c3ccccc3)c2C#N)C(=O)C1', 'no (0)'),
  ('CCCCN1C(=O)/C(=c2\sc3n(c2=O)C2C(NN=3)N(CC)C(=O)N2CC)c2ccccc21 (stereo not given)', 'yes (1)'),
  ('Cn1c(-c2ccc(Br)cc2)c(O)c(=O)c2c(F)cccc21', 'no (0)'),
  ('Nc1c(C(=O)Nc2ccncc2)sc2nc3c(cc12)CCCCCC3', 'no (0)'),
  ('CC1(C)c2[nH]c3ccccc3c2C[C@]2(C)[C@H]3CC=C4[C@@H]5C[C@@](C)(C(N)=O)CC[C@]5(C)CC[C@@]4(C)[C@]3(C)CC[C@@H]12', 'no (0)'),
  ('Cc1ccccc1Cn1cnc2ccc(-c3cc(NC(=O)c4ccc(NC5CCN(C)CC5)cc4)n[nH]3)cc21', 'no (0)'),
  ('O=C(N/N=C/c1ccc(F)cc1)c1ccc(C(F)(F)F)nc1Nc1cccc(C(F)(F)F)c1', 'yes (1)'),
  ('C/C(=C(/c1ccc(Cl)cc1)c1ccc(OCCN2CCCC2)cc1)c1ccc(Cl)cc1', 'no (0)');

## Task Record request — test call for CCCCCCC1(C)NCCO1 (stereo not given)
## Result no (0)

## Task Record request — test call for `CC(=O)OC[C@]12CCC(C)(C)C[C@H]1[C@@]1(O)[C@H](O)C[C@@H]3[C@@]4(C)CCCNC(C)(C)[C@@H]4CC[C@@]3(C)[C@]1(C)CC2`
## Result no (0)

## Task Record request — test call for `COc1ccc(C2=Nc3c/c(=C\c4c(O)[nH]c5ccc(Cl)cc45)ccc3=N2)cc1`
## Result no (0)

## Task Record request — test call for N#CC1=C(N)Oc2c(sc3c(F)cccc23)C1c1ccc(F)cc1 (stereo not given)
## Result no (0)

## Task Record request — test call for `CNC(=O)c1cc(Oc2ccc3c(c2)sc2nc(-c4cc(OC)c(OC)c(OC)c4)cn23)ccn1`
## Result no (0)

## Task Record request — test call for `CN1C(=O)/C(=C/c2cn(-c3ccccc3)nc2-c2ccccc2)SC1=S`
## Result no (0)
